- experiment: qHTS of pediatric cancer cell lines to identify multiple opportunities for drug repurposing: Primary screen for U-2 OS cells (AID 1347096); further: nearly all actives have a fitted effect of over 50% in size
- conditionDetails: U-2 OS viability, CellTiter-Glo luminescence, 48 h; series mostly up to 46 µM
Results filed as inconclusive are left out. Activity calls are given as the source filed them. The call rests on the fitted dose curve; in most records, active means well fitted cell-killing curve with a large enough effect; inconclusive means small, poorly fitted or top-dose-only effect; inactive means flat fitted curve, though single readings scatter.
In this exercise, the only acceptable responses are active, inactive

Task: Which outcome was assigned to NC(=NCCCCCCN=C(N)N=C(N)Nc1ccc(Cl)cc1)N=C(N)Nc1ccc(Cl)cc1 in this test?
Output: inactive

Task: What was the test verdict on OCCN1C[C@H](O)[C@@H](O)[C@H](O)[C@@H]1CO ?
Output: inactive

Task: How did this test come out for NC(=O)Nc1sc(-c2ccc(F)cc2)cc1C(N)=O ?
Output: active

Task: Fill in: this test's call for CC(=O)O[C@H]1C[C@@H]2CC[C@H]3[C@H]4C[C@H]([N+]5(C)CCCCC5)[C@@H](OC(C)=O)[C@@]4(C)CC[C@@H]3[C@@]2(C)C[C@H]1N1CCCCC1 is ___
Output: inactive

Task: I'd appreciate the recorded outcome for O=c1ccn([C@@H]2O[C@H](CO)[C@H](O)[C@@H]2F)c(=O)[nH]1 from this test.
Output: inactive

Task: Could you please tell me the result logged for C=CC[C@@H]1C=C(C)C[C@H](C)C[C@H](OC)[C@H]2O[C@@](O)(C(=O)C(=O)N3CCCC[C@H]3C(=O)O[C@H](C(C)=C[C@@H]3CC[C@H](O)[C@H](OC)C3)[C@@H](C)[C@@H](O)CC1=O)[C@@H](C)C[C@@H]2OC in this assay?
Output: inactive

Task: For COc1ccc2cc([S+]([O-])Cc3ncc(C)c(OC)c3C)nc2c1 , what call appears in the results of this test?
Output: inactive

Task: Hi, sorry to bother you, what did the test record for O=C(O)C[C@H](O)C[C@H](O)C=Cc1c(C2CC2)nc2ccccc2c1-c1ccc(F)cc1 ?
Output: active

Task: Given CC(C)(N)c1ccc(-c2nc3ccccc3nc2-c2ccccc2)cc1 , state the outcome it received in this test.
Output: inactive

Task: Please indicate how the test categorized O=C(C[C@@H]1CC=CCCC(=O)O[C@H](c2ccccc2)CNC1=O)NCc1ccc(Cl)cc1 .
Output: inactive

Task: Answer briefly: the call reported for O=S(=O)(O)CCSSCCS(=O)(=O)O in this assay.
Output: inactive

Task: Which outcome did this test record for the compound C[C@@]12C[C@@]3(O)O[C@@H](O1)[C@]1(COC(=O)c4ccccc4)[C@@H]3C[C@@]12O[C@@H]1O[C@H](CO)[C@@H](O)[C@H](O)[C@@H]1O ?
Output: inactive

Task: Record request — test call for Nc1cccc2c1C(=O)N(C1CCC(=O)NC1=O)C2=O (centres undefined)
Output: inactive

Task: GET /call?item= Nc1ccn(C[C@@H](CO)OCP(=O)(O)O)c(=O)n1 returns the recorded outcome of this test.
Output: inactive

Task: Could you check what this test reported for CCOC(=O)C1=C(C)NC(=S)NC1c1cccc(O)c1 (centres undefined) ?
Output: inactive

Task: Could you please tell me the result logged for COC(=O)[C@H](CCCN=C(N)N)NS(=O)(=O)c1ccc(C)cc1 in this assay?
Output: inactive

Task: Would you mind telling me which call this test gave CCNC(=O)c1cc2c(-c3cc(OCCN4CCCC4)c(Cl)cc3Cl)nc(N)nc2s1 ?
Output: inactive

Task: Hi, sorry to bother you, what did the test record for CC(C=CC1=C(C)CCCC1(C)C)=CC=CC(C)=CC(=O)Nc1ccc(O)cc1 ?
Output: active

Task: Per the records of this test, what outcome belongs to CN1C(C(=O)Nc2ccccn2)=C(O)c2sc(Cl)cc2S1(=O)=O ?
Output: inactive
